tested on: BALB 3T3 cells; assay: in vitro 3T3 NRU test, cytotoxicity; assay type: cell-based, mouse; settings: BALB 3T3, value in brackets
Exercise: state measured pIC50 for each of the compounds provided.
Answers are plain numbers, as −log10 of the molar value.

* CCOC(=O)c1sc2nc(CC)nc(N)c2c1C | 2.19

# ---- query compound ----
## Task // pIC50 lookup, key: `CCOC(=O)Cc1nc(N)c2c(C)c(C(=O)OCC)sc2n1`
## Result 2.27

====

assay: in vitro 3T3 NRU test, cytotoxicity; assay type: cell-based, mouse; conditions: mouse, BALB/3T3 clone A31 cells (mouse embryo fibroblasts), BALB 3T3, value in brackets; read-out: IC50, Cytotoxicity (converted)
Record form. Attribute: IC50 at 24 h. Fill in for each entry.
Numbers only, in mM.

Recorded results for 3 compounds are shown here.
* CCOC(=O)Cc1nc(N)c2c(C)c(C(=O)OCC)sc2n1 | 5.37
* CCOC(=O)c1sc2nc(C)nc(N)c2c1C | 5.4
* CCOC(=O)c1sc2nc(CC)nc(N)c2c1C | 9.37

Kindly review the next compound as well.
## Task What value of measured IC50 at 24 h is listed for `CCOC(=O)c1sc2nc(CCCl)nc(N)c2c1C` ?
## Result 2.2

The measured values listed here are drawn from paper PMC10489817.
